System: SW1271 complex spheroids with HUVEC/MSC, growth, % test/control
Test: Anticancer human tumor SW1271 cell line growth inhibition [AhR];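 note: spheroids exposed to agents for 7 days before readout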
Conditions: second compound 3.16 µM; first compound 0.1 µM; active compounds read low
Excerpt: Multicellular complex tumor spheroid response to aryl hydrocarbon receptor antagonists in combination with a variety of drugs and investigational agents in selected tumor cell lines […] Compounds. […] If the clinical Cmax for an agent had not been determined, the highest concentration tested was 10 microM (Table 1). […]
Provide the recorded viability, T/C for the entries that follow.
One number for each entry, in %.

[[record]]
compound = "COc1cc(C2c3cc4c(cc3C(OC3OC5COC(C)OC5C(O)C3O)C3COC(=O)C23)OCO4)cc(OC)c1O (stereo not drawn) + Cc1ccccc1N=Nc1ccc(NC(=O)c2ccnn2C)c(C)c1"
value_type = "viability, T/C"
units_text = "%"
quantitative_result = 80.4

[[record]]
compound = "Cn1ncnc1C1c2n[nH]c(=O)c3cc(F)cc(c23)NC1c1ccc(F)cc1 (stereo not drawn) + CC(CO)NC(=O)c1cc(-c2ccc(Cl)cc2)nn(-c2cnn(C)c2)c1=O"
value_type = "viability, T/C"
units_text = "%"
quantitative_result = 77.2


Next compound, viability, T/C to be filled in.
Task: I am curious: what viability, T/C value has been reported for Nc1ccn(C2OC(CO)C(O)C2(F)F)c(=O)n1 (stereo not drawn) + CC(CO)NC(=O)c1cc(-c2ccc(Cl)cc2)nn(-c2cnn(C)c2)c1=O ?
Result: 58.7

From: PubChem BioAssay AID1919017
